Target: GLUT1 (Homo sapiens)
Sequence (P11166 1-492): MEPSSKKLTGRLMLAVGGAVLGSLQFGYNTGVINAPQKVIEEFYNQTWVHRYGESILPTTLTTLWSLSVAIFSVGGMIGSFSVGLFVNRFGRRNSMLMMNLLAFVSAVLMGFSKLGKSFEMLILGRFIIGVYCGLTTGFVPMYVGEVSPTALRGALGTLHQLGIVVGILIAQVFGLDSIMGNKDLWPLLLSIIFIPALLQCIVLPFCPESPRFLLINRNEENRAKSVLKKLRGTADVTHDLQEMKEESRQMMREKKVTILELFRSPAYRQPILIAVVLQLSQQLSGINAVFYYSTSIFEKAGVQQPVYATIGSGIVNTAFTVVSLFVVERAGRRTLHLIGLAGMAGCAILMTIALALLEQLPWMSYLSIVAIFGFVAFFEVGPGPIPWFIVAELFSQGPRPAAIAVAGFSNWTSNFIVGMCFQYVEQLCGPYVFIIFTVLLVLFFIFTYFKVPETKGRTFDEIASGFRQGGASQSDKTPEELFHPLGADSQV
Test: Indirect measurement of GLUT1 activity by quantification of intracellular ATP levels (glucose induced ATP increase)
Format: cell-based
Design: endogenous in cells; host or cells: DLD1 or CHO-K1
Settings: read-out: IC50 regarding glucose induced ATP increase (GLUT1 inhibition)
pIC50: −log10 of the molar value.
measurement-type: pIC50

{"smiles-structure": "Cc1nn(Cc2ccc(C(=O)NCC(N)=O)cc2)c(C)c1NC(=O)c1cc(C(F)(F)F)nc2ccc(Br)cc12", "target-system": "GLUT1 (Homo sapiens)", "pIC50": 6.05}

a. CCc1nn(Cc2ccc(F)cc2)c(CC)c1NC(=O)c1cc(C(N)=O)nc2cc(Cl)ccc12
b. Cc1nn(Cc2ccc(C(F)(F)F)cc2)c(C)c1NC(=O)c1cc(C(N)=O)nc2cc(F)c(Cl)cc12
Determine, for a and b , which has the greater value of pIC50. Write down the label attached to your selection.
b
(b: 8.85, a: 6.44)
